- System: SARS-CoV-2
- Test protocol: Antiviral assay (viral RNA in culture supernatant by RT-qPCR)
- Protocol conditions: Severe acute respiratory syndrome coronavirus 2, 72 h, read-out: CC50 (Antiviral Data), MOI of 0.05, 72 h, 96-well plate, RT-qPCR of viral RNA

Compound	CC50
CC(C)(NC(=O)C(F)(F)F)C(=O)N1C[C@H]2[C@@H]([C@H]1C(=O)N[C@H](C#N)C[C@@H]1CCNC1=O)C2(C)C	> 100 µM
Cc1cc(C[C@@H](C#N)NC(=O)[C@@H]2[C@@H]3[C@H](CN2C(=O)[C@H](NC(=O)C2C4CO[C@@H]5OC[C@@H]2C5C4)C(C)(C)C)C3(C)C)[nH]n1 (stereo partly shown)	> 100 µM
CCCN(CCC)[C@@H]1C[C@@H](C(=O)N[C@H](C#N)Cc2cc(C)n[nH]2)N(C(=O)C(NC(=O)C(F)(F)F)C(C)(C)C)C1 (stereo partly shown)	> 100 µM
CCCN(CCC)[C@@H]1C[C@@H](C(=O)NC(C#N)C[C@@H]2CCNC2=O)N(C(=O)[C@@H](NC(=O)OC(C)(C)C)C(C)(C)C)C1 (stereo partly shown)	10.1 to 100 µM
CC(C)O[C@@H]1C[C@@H](C(=O)NC(C#N)C[C@H]2CCNC2=O)N(C(=O)[C@@H](NC(=O)OC(C)(C)C)C(C)(C)C)C1 (stereo partly shown)	10.1 to 100 µM
CCCN(CCC)[C@@H]1C[C@@H](C(=O)NC(C#N)C[C@@H]2CCNC2=O)N(C(=O)C(C)(C)NC(=O)C(F)(F)F)C1 (stereo partly shown)	> 100 µM
CC(C)(C)OC(=O)N1C[C@H]2[C@@H]([C@H]1C(=O)N[C@H](C#N)C[C@@H]1CCNC1=O)C2(C)C	> 100 µM
CC(C)(C)[C@H](NC(=O)C(F)(F)F)C(=O)N1C[C@H]2[C@@H]([C@H]1C(=O)NC(C#N)Cc1cn[nH]c1O)C2(C)C (stereo partly shown)	> 100 µM
CC(C)(C)C(=O)N[C@H](C(=O)N1C[C@H]2[C@@H]([C@H]1C(=O)N[C@H](C#N)C[C@@H]1CCNC1=O)C2(C)C)C(C)(C)C	1 to 10 µM
CC(C)(C)OC(=O)N[C@H](C(=O)N1CCN(C(=O)OC(C)(C)C)C[C@H]1C(=O)NC(C#N)CC1CCNC1=O)C(C)(C)C (stereo partly shown)	> 100 µM
CC(C)(C)OC(=O)N[C@H](C(=O)N1CCN(C(=O)OC(C)(C)C)CC1C(=O)N[C@@H](C#N)C[C@@H]1CCNC1=O)C(C)(C)C (stereo partly shown)	> 100 µM
CCCN(CCC)[C@@H]1C[C@@H](C(=O)NC(C#N)C[C@@H]2CCNC2=O)N(C(=O)[C@@H](NC(=O)OCc2cccnc2)C(C)(C)C)C1 (stereo partly shown)	> 100 µM
CC(C)(C)[C@H](NC(=O)C(F)(F)F)C(=O)N1CCN(Cc2ccccc2)CC1C(=O)N[C@@H](C#N)C[C@@H]1CCNC1=O (stereo partly shown)	> 100 µM

Values from patent US20240285598A1
